Target: human CXCR4 (human, UniProt P61073 1-352)
Sequence (P61073 whole entry): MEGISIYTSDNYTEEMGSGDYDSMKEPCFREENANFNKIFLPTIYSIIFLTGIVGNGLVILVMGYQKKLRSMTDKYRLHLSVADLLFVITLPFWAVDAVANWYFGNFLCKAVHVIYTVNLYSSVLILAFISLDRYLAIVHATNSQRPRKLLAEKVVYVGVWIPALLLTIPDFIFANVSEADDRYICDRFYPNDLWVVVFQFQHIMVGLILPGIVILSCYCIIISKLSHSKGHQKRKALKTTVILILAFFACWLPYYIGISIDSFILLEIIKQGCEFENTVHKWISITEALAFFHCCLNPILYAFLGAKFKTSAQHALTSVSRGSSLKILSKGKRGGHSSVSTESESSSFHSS
Test: cell-based or functional assay
Hi! Could you tag entries with IC50 (nM) in β-Arrestin BRET assay (Antagonist mode in the presence of 100 nM SDF-1) below 2000 nM as Condition met, and those at or above as Condition not met? Much appreciated.

[
  {
    "binder": "AM3-523 (designed binder) LQVDIVPSQGEISVGESKFFLCQVAGSGSHMRISWFSPNGEKLTPNQQRISVVWNDDSSSTLTIYNANIDDAGIYKCVVWRVGGYRHRALVLGEATVNVKIFQ",
    "classLabel": "Condition not met"
  },
  {
    "binder": "AM3-466 (designed binder) LQVDIVPSQGEISVGESKFFLCQVAGSGSHQRISWFSPNGEKLTPNQQRISVVWNDDSSSTLTIYNANIDDAGIYKCVVWRTGAYRHRALVLGEATVNVKIFQ",
    "classLabel": "Condition not met"
  },
  {
    "binder": "AM4-746 (designed binder) LQVDIVPSQGEISVGESKFFLCQVAGSKSNIRISWFSPNGEKLTPNQQRISVVWNDDSSSTLTIYNANIDDAGIYKCVVYRTGGYRHRYLKLGEATVNVKIFQ",
    "classLabel": "Condition met"
  },
  {
    "binder": "AM4-661 (designed binder) LQVDIVPSQGEISVGESKFFLCQVAGSKSDFRISWFSPNGEKLTPNQQRISVVWNDDSSSTLTIYNANIDDAGIYKCVVYRTGGYRHRYLVLGEATVNVKIFQ",
    "classLabel": "Condition met"
  },
  {
    "binder": "AM4-613 (designed binder) LQVDIVPSQGEISVGESKFFLCQVAGSKSDVRISWFSPNGEKLTPNQQRISVVWNDDSSSTLTIYNANIDDAGIYKCVVWRTGGYRHRYLVLGEATVNVKIFQ",
    "classLabel": "Condition met"
  },
  {
    "binder": "AM4-1121 (designed binder) LQVDIVPSQGEISVGESKFFLCQVAGSKSGIRISWFSPNGEKLTPNQQRISVVWNDDSSSTLTIYNANIDDAGIYKCVVYRTGGYRHRYLRLGEATVNVKIFQ",
    "classLabel": "Condition met"
  }
]
